biological target: Focal adhesion kinase 1 (Homo sapiens) (UniProt Q05397); assay: small-molecule microarray binders of FAK, primary screen, biochemical, 635/667 nm fluorescence, BSA, DTT (AID 1130); settings: PTK2 binding, 635 nm fluorescence, higher = more signal;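 further: composite of spot emission at 667 nm and signal to noise over triplicate slides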
Sequence (Q05397 whole entry, looked up): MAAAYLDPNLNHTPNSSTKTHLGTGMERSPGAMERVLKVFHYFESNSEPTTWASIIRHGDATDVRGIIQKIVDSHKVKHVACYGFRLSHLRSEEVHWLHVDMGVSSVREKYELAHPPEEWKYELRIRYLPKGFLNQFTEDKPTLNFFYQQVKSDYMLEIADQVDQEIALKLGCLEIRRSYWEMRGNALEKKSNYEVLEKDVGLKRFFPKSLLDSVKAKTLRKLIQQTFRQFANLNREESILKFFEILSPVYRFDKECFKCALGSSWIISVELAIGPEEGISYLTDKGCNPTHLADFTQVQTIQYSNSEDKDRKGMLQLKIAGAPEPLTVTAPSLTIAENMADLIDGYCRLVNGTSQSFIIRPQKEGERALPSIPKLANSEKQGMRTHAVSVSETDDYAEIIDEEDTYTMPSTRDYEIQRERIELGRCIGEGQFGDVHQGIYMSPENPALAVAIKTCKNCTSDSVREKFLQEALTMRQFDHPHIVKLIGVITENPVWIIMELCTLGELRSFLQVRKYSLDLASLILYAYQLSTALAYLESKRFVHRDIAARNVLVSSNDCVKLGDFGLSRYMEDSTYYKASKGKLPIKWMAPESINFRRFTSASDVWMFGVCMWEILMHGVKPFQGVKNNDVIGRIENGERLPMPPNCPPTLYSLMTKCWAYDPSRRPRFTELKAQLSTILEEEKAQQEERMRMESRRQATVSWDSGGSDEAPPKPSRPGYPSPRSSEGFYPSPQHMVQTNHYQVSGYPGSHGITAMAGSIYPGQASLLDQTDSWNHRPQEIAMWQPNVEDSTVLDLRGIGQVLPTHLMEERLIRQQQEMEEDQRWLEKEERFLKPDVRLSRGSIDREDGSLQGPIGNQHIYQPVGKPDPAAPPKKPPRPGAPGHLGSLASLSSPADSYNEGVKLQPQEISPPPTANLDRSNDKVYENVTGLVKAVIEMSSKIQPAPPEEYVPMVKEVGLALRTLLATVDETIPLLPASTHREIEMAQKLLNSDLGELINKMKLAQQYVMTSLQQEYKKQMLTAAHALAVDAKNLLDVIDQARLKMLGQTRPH
Rule: composite z-score under 0.4 gives Not satisfied, otherwise Satisfied.

| Compound | System tested | Label value |
| --- | --- | --- |
| O=C1c2ccccc2[C@@]2(Cc3ccccc3N(Cc3ccccc3)C2=O)[C@H](c2ccc(CO)cc2)N1C1CCCCC1 | Focal adhesion kinase 1 (Homo sapiens) (UniProt Q05397) | Not satisfied |
| CCCCC=C[C@@H](NC(=O)c1cccs1)c1ccccc1 | Focal adhesion kinase 1 (Homo sapiens) (UniProt Q05397) | Not satisfied |
| C=CCN1C(=O)[C@]2(O[C@H](CCO)[C@@H]([Si](C)(C)c3ccc(OC)cc3)[C@@H]2C)c2cc(NC(=O)[C@H](C)O)ccc21 | Focal adhesion kinase 1 (Homo sapiens) (UniProt Q05397) | Satisfied |
| COCCCNC(=O)[C@@]1(CCC(=O)OC(C)(C)C)N=C(c2ccc(OCCCO)cc2)O[C@H]1c1ccccc1CN=[N+]=[N-] | Focal adhesion kinase 1 (Homo sapiens) (UniProt Q05397) | Satisfied |
| COCCOC(=O)N1C(=O)[C@@]2(c3ccccc31)[C@H](C(=O)NC[C@H](O)c1ccccc1)[C@H]1C(=O)O[C@H](c3ccccc3)[C@H](c3ccccc3)N1[C@@H]2c1ccc(OCCO)cc1 | Focal adhesion kinase 1 (Homo sapiens) (UniProt Q05397) | Not satisfied |
| COCCOC(=O)N1C(=O)[C@@]2(c3cc(C#CCC(C(=O)OC)C(=O)OC)ccc31)[C@H](c1ccccc1OCCO)N1[C@H](c3ccccc3)[C@H](c3ccccc3)OC(=O)[C@H]1[C@@H]2C(=O)N1CCc2cc(OC)c(OC)cc2C1 | Focal adhesion kinase 1 (Homo sapiens) (UniProt Q05397) | Satisfied |
| [N-]=[N+]=Nc1ccccc1[C@@H]1OC(c2ccc(OCCCO)cc2)=N[C@]1(CCS(=O)(=O)c1ccccc1)C(=O)N1CCOCC1 | Focal adhesion kinase 1 (Homo sapiens) (UniProt Q05397) | Satisfied |
| Cc1ccc(S[C@]2(C(=O)NCC(C)C)CC(=O)N(Cc3ccccc3Cl)[C@@H]2c2ccc(CO)cc2)cc1 | Focal adhesion kinase 1 (Homo sapiens) (UniProt Q05397) | Not satisfied |
| COc1cc2c(cc1OC)CN(C(=O)[C@@H]1[C@H]3C(=O)O[C@H](c4ccccc4)[C@H](c4ccccc4)N3[C@H](c3ccccc3OCCO)[C@@]13C(=O)Nc1ccc(C#CCNC(N)=O)cc13)CC2 | Focal adhesion kinase 1 (Homo sapiens) (UniProt Q05397) | Satisfied |
| C=CC(=C)C1=CCO[C@@H]1[C@H]1CCCN1S(=O)(=O)c1ccccc1[N+](=O)[O-] | Focal adhesion kinase 1 (Homo sapiens) (UniProt Q05397) | Not satisfied |
| CC(C)NC(=O)[C@@H]1c2ccccc2C(=O)N(Cc2ccccc2Cl)[C@H]1c1ccc(CO)cc1 | Focal adhesion kinase 1 (Homo sapiens) (UniProt Q05397) | Not satisfied |
| CCOC(=O)C1=CCC(C(C)(C)C)N(S(=O)(=O)c2ccc(C)cc2)C1 (centres undefined) | Focal adhesion kinase 1 (Homo sapiens) (UniProt Q05397) | Not satisfied |
| Cc1cc(C)c(C(O)C2C=CC3C(=O)N(c4ccccc4)C(=O)C3N2Nc2ccc(C#N)cc2)c(C)c1 (centres undefined) | Focal adhesion kinase 1 (Homo sapiens) (UniProt Q05397) | Not satisfied |
| [N-]=[N+]=NCc1ccccc1C[C@]1(C(=O)O)N=C(c2ccc(OCCCO)cc2)O[C@H]1c1ccccc1 | Focal adhesion kinase 1 (Homo sapiens) (UniProt Q05397) | Not satisfied |
